Documented protein stability index across a set of variants
B1: C20orf112 (parent)
chain: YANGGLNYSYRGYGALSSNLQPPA

- Variants of: B1
- method notes: protein stability index of a GFP-peptide fusion (GPS, HEK-293T) (PSI 1-6); higher = more stable;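 note: lentivirally expressed fusions sorted by FACS into six bins by GFP to DsRed ratio, PSI derived from sequencing read proportions per bin multiplied by bin number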
- experimental parameters: c terminus: a fixed tail appended

sequence	value observed
YANGGLNYSYRGYGALSSNLQPKA [P23K]	1.97
YANGGLNYSYRGYGALSSNIQPPA [L20I]	2.54
YANGGLNYSYRGYGALSSNLQPPY [A24Y]	1.75
YANGGLNYSYRGYGALSSNLQPPM [A24M]	1.35
YANGGLNYAYRGYGALSSNLQPPA [S9A]	2.35
YANGGLNYSYRGYGALSSNVQPPA [L20V]	1.84

Need protein stability index of YANGGLMYSYRGYGALSSNLQPPA [N7M] , thanks. 2.76

Need protein stability index of YANGGLNYSYRGYGALWSNLQPPA [S17W] , thanks. 1.85

Need protein stability index of YANGGLNYSYRGYGAGSSNLQPPA [L16G] , thanks. 2.61

These data points were gathered from the supplement of paper PMC10567573.
